- measured on: T1, anti-CD28 Fab (SEQ ID NOs: 202, 203)
- T1 construct: biotinylated and captured on neutravidin coated plates in the phage ELISA
- assay summary: phage binding ELISA; biotinylated Fab on neutravidin plate;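 further: clonal phage supernatants added to Fab wells pretreated with CD28 antigen or with blocking buffer only, bound phage read out via HRP-linked anti-M13 antibody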
endpoint: Anti-CD28 Fab (SEQ ID NOs: 202, 203) signal

INSERT INTO assay_data (binder, measured) VALUES
  ('YCDGHLSEYMAKCL [Phage-424]', 1.72),
  ('YCDGHLPEYMGKCL [Phage-316]', 1.89),
  ('YCDGHMPEYLAKCL [Phage-338]', 1.86),
  ('YCDGLASEYMSKCL [Phage-382]', 1.77),
  ('YCDGHSAAYIMKCL [Phage-342]', 1.84),
  ('YCDGHLPEYFLKCL [Phage-436]', 1.71),
  ('YCDGHLDIYLAKCL [Phage-303]', 1.91),
  ('YCAGHVPEYMAKCL [Phage-379]', 1.78);
